Collected Activity values appear next to each entry.
# Experimental protocol: Induction of cell cycle arrest in human WHCO1 cells assessed as G0/G1 phase cells at 10 uM after 16 hrs by flow cytometry (reference value: 29.2 +/- 5.2%)
# Type: functional
Give a bare numeral; the unit % is implied.

In the examples that follow, each entry is paired with its recorded Activity.
• COc1ccc(CS/C=C/C[S+]([O-])Cc2ccc(OC)cc2)cc1 (centres undefined) = 21.5
• COc1ccc(CS/C=C\C[S+]([O-])Cc2ccc(OC)cc2)cc1 (centres undefined) = 19.5
• COc1ccc(CSCC=CSSCc2ccc(OC)cc2)cc1 = 9.73

As a next step, examine the molecule that follows.
Activity for COc1ccc(CSSC=CC[S+]([O-])Cc2ccc(OC)cc2)cc1 (centres undefined) is 8.03

* * *

Entries and their Activity
# Experimental protocol: Induction of cell cycle arrest in human WHCO1 cells assessed as G2/M phase cells at 10 uM after 16 hrs by flow cytometry (reference value: 25.5 +/- 3.7%)
# Format: functional
# value in %; strip the unit string

Example entries begin here.
* COc1ccc(CSCC=CSSCc2ccc(OC)cc2)cc1 | 74.4
* COc1ccc(CS/C=C/C[S+]([O-])Cc2ccc(OC)cc2)cc1 (centres undefined) | 11.4
* COc1ccc(CS/C=C\C[S+]([O-])Cc2ccc(OC)cc2)cc1 (centres undefined) | 17.4

// switching to the query compound
Documented Activity of COc1ccc(CSSC=CC[S+]([O-])Cc2ccc(OC)cc2)cc1 (centres undefined) : 78.6
